# system tested: 3-hydroxy-3-methylglutaryl-coenzyme A reductase (Homo sapiens) (UniProt P04035)
# Sequence (P04035 whole entry): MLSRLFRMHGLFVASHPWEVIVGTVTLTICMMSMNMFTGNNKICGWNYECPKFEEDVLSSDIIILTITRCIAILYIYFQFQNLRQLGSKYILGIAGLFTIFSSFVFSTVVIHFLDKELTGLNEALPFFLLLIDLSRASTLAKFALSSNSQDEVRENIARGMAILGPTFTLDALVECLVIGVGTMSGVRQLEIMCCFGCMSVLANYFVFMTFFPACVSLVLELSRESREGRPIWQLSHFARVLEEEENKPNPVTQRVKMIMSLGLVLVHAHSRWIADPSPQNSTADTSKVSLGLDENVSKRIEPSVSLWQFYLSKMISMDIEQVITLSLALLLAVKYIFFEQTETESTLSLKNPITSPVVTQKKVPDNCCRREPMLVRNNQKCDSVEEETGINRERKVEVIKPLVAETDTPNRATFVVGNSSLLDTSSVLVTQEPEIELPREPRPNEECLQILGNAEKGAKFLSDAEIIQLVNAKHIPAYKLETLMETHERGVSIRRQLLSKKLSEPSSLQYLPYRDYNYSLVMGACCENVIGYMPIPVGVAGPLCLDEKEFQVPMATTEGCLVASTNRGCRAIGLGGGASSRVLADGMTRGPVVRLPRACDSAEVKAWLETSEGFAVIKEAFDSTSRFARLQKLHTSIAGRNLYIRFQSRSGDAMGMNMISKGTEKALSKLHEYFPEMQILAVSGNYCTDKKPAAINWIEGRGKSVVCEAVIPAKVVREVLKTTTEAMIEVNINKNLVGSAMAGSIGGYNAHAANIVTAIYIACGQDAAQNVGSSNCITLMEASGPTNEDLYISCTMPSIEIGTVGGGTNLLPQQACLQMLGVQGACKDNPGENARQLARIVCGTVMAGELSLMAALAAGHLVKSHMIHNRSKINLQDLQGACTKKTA
# assay protocol: Inhibition of HMG-CoA reductase compared to mevinolin.
# Assay type: functional
recorded endpoint: Relative potency
Reply with just the number.

Q) Report Relative potency, nothing else, for this molecule: CC(C)c1c(O)c(C(C)C)c(C(C)C)c(OCC(O)C[C@@H](O)CC(=O)[O-])c1-c1ccc(F)cc1.[Na+] (stereo not given in full)
A) 900

Q) Report Relative potency, nothing else, for this molecule: `CC(=O)[O-].CC(C)c1c(OC[C@@H](O)C[C@@H](O)CC(=O)[O-])c(C(C)C)c(C(C)C)c(O)c1-c1ccc(F)cc1.[Na+].[Na+]`
A) 1200

Q) Report Relative potency, nothing else, for this molecule: CC(C)c1cc(-c2ccc(F)cc2)c(OCC(O)C[C@@H](O)CC(=O)[O-])c(C(C)C)c1.[Na+] (stereo not given in full)
A) 150

Q) Report Relative potency, nothing else, for this molecule: CC(C)c1cc(Sc2ccc(F)cc2)cc(-c2ccc(F)cc2)c1OCC(O)C[C@@H](O)CC(=O)[O-].[Na+] (stereo not given in full)
A) 10000

Q) Report Relative potency, nothing else, for this molecule: CC(C)c1cc(-c2ccc(F)cc2)c(OCC2C[C@@H](O)CC(=O)O2)c(C(C)C)c1 (stereo not given in full)
A) 250

Q) Report Relative potency, nothing else, for this molecule: O=C(O)C[C@H](O)CC(O)COc1c(Cl)cc(Cl)cc1C(F)(F)C1CCCCC1 (stereo not given in full)
A) 2

Q) Report Relative potency, nothing else, for this molecule: CC(C)c1c(OCC(O)C[C@@H](O)CC(=O)O)c(C(c2ccc(F)cc2)c2ccc(F)cc2)cc2ccccc12 (stereo not given in full)
A) 2

Q) Report Relative potency, nothing else, for this molecule: CC(C)c1cc(-c2ccccc2)cc(CC2CCCCC2)c1OCC(O)C[C@@H](O)CC(=O)O (stereo not given in full)
A) 50

Q) Report Relative potency, nothing else, for this molecule: CC(C)c1c(OCC(O)C[C@@H](O)CC(=O)O)c(-c2ccc(F)cc2)nc2ccccc12 (stereo not given in full)
A) 20
